# Assayed target: BRD9 (Homo sapiens)
# Sequence (Q9H8M2 whole entry): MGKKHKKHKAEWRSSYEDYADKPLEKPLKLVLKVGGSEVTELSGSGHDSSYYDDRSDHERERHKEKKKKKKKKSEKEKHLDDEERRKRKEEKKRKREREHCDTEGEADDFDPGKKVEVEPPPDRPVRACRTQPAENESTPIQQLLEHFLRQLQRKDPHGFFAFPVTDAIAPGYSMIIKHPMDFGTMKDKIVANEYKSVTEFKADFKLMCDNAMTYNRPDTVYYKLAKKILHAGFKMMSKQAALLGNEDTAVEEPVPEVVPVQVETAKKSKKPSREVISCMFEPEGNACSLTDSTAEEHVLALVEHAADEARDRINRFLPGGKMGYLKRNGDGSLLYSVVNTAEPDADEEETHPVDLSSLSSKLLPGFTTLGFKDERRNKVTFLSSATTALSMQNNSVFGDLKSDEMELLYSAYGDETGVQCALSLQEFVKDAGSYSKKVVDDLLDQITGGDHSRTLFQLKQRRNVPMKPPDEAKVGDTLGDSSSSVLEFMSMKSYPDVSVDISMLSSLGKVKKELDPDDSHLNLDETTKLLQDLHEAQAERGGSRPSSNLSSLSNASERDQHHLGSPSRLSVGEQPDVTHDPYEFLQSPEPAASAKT
# Measurement protocol: Degradation of BRD9 (IF), immunofluorescence in MV4-11 cells, 24 hours (Assay Protocol 2)
# Assay type: cell-based
# Design: A suspension of MV4-11 cells (ATCC CRL-9591) was prepared; host or cells: MV4-11
# Test conditions: MV4-11, Assay protocol 2; BRD9 degradation; read-out: Dmax
Reported Dmax values are given for each entry in this list.

Example results:
>  <Molecule>
COc1cc(-c2cn(C)c(=O)c(C)c2C)cc(OC)c1CN1CCN(Cc2cccc3c2CCN(C(=O)/C(C#N)=C/C(C)(C)C)C3C(C)C)CC12CC2 (mixture of isomers)

>  <Assayed target>
BRD9 (Homo sapiens)

>  <Readout name>
Dmax

>  <Measured value>
> 75%

$$$$
>  <Molecule>
COc1cc(-c2cn(C)c(=O)c3[nH]ncc23)cc(OC)c1CN1CCN(Cc2cccc3c2CCN(C(=O)/C(C#N)=C/C(C)(C)C)C3C)C2(CC2)C1 (mixture of isomers)

>  <Assayed target>
BRD9 (Homo sapiens)

>  <Readout name>
Dmax

>  <Measured value>
> 75%

$$$$

Provide measured Dmax value, entry: COc1cc(-c2cn(C)c(=O)c(C)c2C)cc(OC)c1CN1CCC2(CC1)CN(c1cccc3c1CCN(C(=O)/C(C#N)=C/C(C)(C)C)[C@@H]3C)C2 (mixture of isomers)
40 to 70%

Report measured Dmax; entry is COc1cc(-c2cn(C)c(=O)c(C)c2C)cc(OC)c1CN1CCC2(CC1)CN(c1cccc(C3CCCN3C(=O)C(C#N)=CC(C)(C)C)c1)C2 (single isomer, unassigned)
40 to 70%

Tell me its Dmax given COc1cc(-c2cn(C)c(=O)c(C)c2C)cc(OC)c1CN1CCN(Cc2cccc3c2CCN(C(=O)/C(C#N)=C/C(C)(C)C)C3C)C2(CC2)C1 (mixture of isomers) as the entry.
> 75%

For the molecule COc1cc(-c2cn(C)c(=O)c(C)c2C)cc(OC)c1CN1CCN(Cc2cccc3c2CCN(C(=O)/C(C#N)=C/C(C)(C)CF)C3C)C2(CC2)C1 (single isomer, unassigned) , report Dmax.
> 75%

Tell me measured Dmax for COc1cc(-c2cn(C)c(=O)c(C)c2C)cc(OC)c1CN1CCN(Cc2ccc3c(c2)[C@@H](C)N(C(=O)/C(C#N)=C/C(C)(C)CO)CC3)C2(CC2)C1 (single isomer, unassigned) please.
> 75%

Supply Dmax value. Item: COc1cc(-c2cn(C)c(=O)c(C)c2C)cc(OC)c1CN1CCN(Cc2cccc3c2CCN(C(=O)/C(C#N)=C/C(C)(C)C(F)F)C3C)C2(CC2)C1 (mixture of isomers)
> 75%

Read off the recorded Dmax for COc1cc(-c2cn(C)c(=O)c(C)c2C)cc(OC)c1CN1CC2CC(C1)N2Cc1cccc2c1CCN(C(=O)/C(C#N)=C/c1ccnc(C)n1)C2C (mixture of isomers)
> 75%

Respond only with Dmax recorded for COc1cc(-c2cn(C)c(=O)c(C)c2C)cc(OC)c1CN1CCN(Cc2cccc3c2CCN(C(=O)/C(C#N)=C/C(C)(C)CF)C3C(C)C)C2(CC2)C1 (single isomer, unassigned) [Compound C76]
70 to 75%
